Source: ChEMBL document CHEMBL2331492

Experiment: Antiproliferative activity against human RKOp27 cells after 48 hrs
Type: functional, cell-based
Settings: RKOp27, 48 h
Ranges used to classify EC50: Low = under 400 nM, Mid = from 400 nM up to 2000 nM, High = 2000 nM and over

CN(C)CCn1nc2c3c(c(NCC/C=C\CCN4CC4)ccc31)C(=O)c1ccncc1-2 :: Low
CN(C)CCn1nc2c3c(c(NCCCCc4ccc(N(CCCl)CCCl)cc4)ccc31)C(=O)c1ccncc1-2 :: Mid
CN(C)CCn1nc2c3c(c(NCCc4c[nH]c5ccccc45)ccc31)C(=O)c1ccncc1-2 :: Mid
CN(C)CCn1nc2c3c(c(NCCC#CCCO)ccc31)C(=O)c1ccncc1-2 :: Mid
CN(C)CCn1nc2c3c(c(NCCc4ccccn4)ccc31)C(=O)c1ccncc1-2 :: High
CN(C)CCn1nc2c3c(c(NCCN4CC4)ccc31)C(=O)c1ccncc1-2 :: Low
CN(C)CCn1nc2c3c(c(NCCC4CCCN4C)ccc31)C(=O)c1ccncc1-2 (centres undefined) :: Low
CN(C)CCn1nc2c3c(c(NCCCCCCOS(C)(=O)=O)ccc31)C(=O)c1ccncc1-2 :: Mid
CN(C)CCn1nc2c3c(c(NCCc4cccs4)ccc31)C(=O)c1ccncc1-2 :: High

----------
// pEC50 lookup, one value per entry
Experiment: Antiproliferative activity against human RKOp27 cells after 48 hrs
Assay type: functional, cell-based
Conditions: RKOp27, 48 h
pEC50: −log10 of the molar value.
QUANTITY KIND: pEC50

CN(C)CCn1nc2c3c(c(NCCCCOS(C)(=O)=O)ccc31)C(=O)c1ccncc1-2 :: 5.93
CN(C)CCn1nc2c3c(c(NCCCCCCN4CC4)ccc31)C(=O)c1ccncc1-2 :: 6.89
CN(C)CCn1nc2c3c(c(NCCC#CCCOS(C)(=O)=O)ccc31)C(=O)c1ccncc1-2 :: 6.33
CN(C)CCn1nc2c3c(c(NCC/C=C/CCN4CC4)ccc31)C(=O)c1ccncc1-2 :: 6.14
CN(C)CCn1nc2c3c(c(NCCCCN4CC4)ccc31)C(=O)c1ccncc1-2 :: 6.00
CN(C)CCn1nc2c3c(c(NCCc4c[nH]cn4)ccc31)C(=O)c1ccncc1-2 :: 5.88
CN(C)CCn1nc2c3c(c(NCC/C=C\CCOS(C)(=O)=O)ccc31)C(=O)c1ccncc1-2 :: 6.20
CN(C)CCSCCNc1ccc2c3c(nn2CCN(C)C)-c2cnccc2C(=O)c13 :: 6.04
CN(C)CCn1nc2c3c(c(NCCC#CCCN4CC4)ccc31)C(=O)c1ccncc1-2 :: 7.15

----------
// EC50 lookup, one value per entry
System: SK-OV-3
Assay: Antiproliferative activity against human SKOV3 cells after 48 hrs
Assay type: functional, cell-based
Settings: SK-OV-3, 48 h
QUANTITY KIND: EC50

CN(C)CCn1nc2c3c(c(NCC/C=C\CCN4CC4)ccc31)C(=O)c1ccncc1-2 :: 1770 nM
CN(C)CCSCCNc1ccc2c3c(nn2CCN(C)C)-c2cnccc2C(=O)c13 :: 700 nM
CN(C)CCn1nc2c3c(c(NCCCCN4CC4)ccc31)C(=O)c1ccncc1-2 :: 530 nM
CN(C)CCn1nc2c3c(c(NCCC#CCCO)ccc31)C(=O)c1ccncc1-2 :: 1210 nM
CN(C)CCn1nc2c3c(c(NCCc4ccccn4)ccc31)C(=O)c1ccncc1-2 :: 1410 nM
O=C1c2c(O)ccc(O)c2C(=O)c2c(NCCNCCO)ccc(NCCNCCO)c21 :: 120 nM
CSCCCNc1ccc2c3c(nn2CCN(C)C)-c2cnccc2C(=O)c13 :: 1360 nM
CN(C)CCn1nc2c3c(c(NCCN4CC4)ccc31)C(=O)c1ccncc1-2 :: 390 nM
CN(C)CCn1nc2c3c(c(NCCOS(C)(=O)=O)ccc31)C(=O)c1ccncc1-2 :: 550 nM
CN(C)CCn1nc2c3c(c(NCCC#CCCOS(C)(=O)=O)ccc31)C(=O)c1ccncc1-2 :: 730 nM
CN(C)CCn1nc2c3c(c(NCC/C=C/CCN4CC4)ccc31)C(=O)c1ccncc1-2 :: 3220 nM
